Values compiled from patent US8008547B2.

Assay: Standard protocol for determination of kcat and KM (continuous spectrophotometric assay, Acetyl CoA hydrolysis at 235 nm)
Assay type: biochemical
Settings: purified protein; about 23° C.; 20 mM HEPES pH 6.8, 10% ethylene glycol, 0.2 mM acetyl CoA
reported.endpoint: Kcat (s⁻¹)
Numeric answer only, unit s⁻¹ assumed.

# molecule, Kcat, s⁻¹
data = [
    ("SEQ ID NO: 509: GAT polypeptide (protein, GAT1_24G3, GAT polypeptide) MIEVKPINAEDTYEIRHRILRPNQPLEACMYETDLLGGTFHLGGYYRGKLISIASFHQAEHSELEGQKQYQLRGMATLEGYREQKAGSTLIRHAEELLRKKGADLLWCNARTFVSGYYEKLGFSEQGEVYDIPPIGPYILMYEKLT", 0.0817),
]

[Q] I have this molecule here, SEQ ID NO: 385: GAT polypeptide (protein, 6_17C5, GAT polypeptide) MIEVKPINAEDTYEIRHRILRPNQPLEACKYEADLLGGTFHLGGYYRGKLISIASFHQAEHPELEGQKQYQLRGMATLEGNREQKAGSTLIRHAEELLRKKGADLLWCNARTSASGYYKKLGFSEQGEVYDVPPIGPHILMYKKLT , and I need its recorded Kcat.
[A] 0.587
